Data provenance: paper PMC13286052

Assay: in vivo
Conditions: male, CD-1, mouse, iv, 2 mg/kg
quantityKind: Cmax (ng/mL)
Your answer should be a plain number; it is taken to be in ng/mL.

Query: Which value of Cmax has been reported for O=C(NCCc1ccc(F)cc1F)c1cn(Cc2ccc(F)cc2)cc(O)c1=O [ZW-2038] in the records?
Reply: 528

---

Assay: in vivo
Conditions: male, CD-1, mouse, iv, 2 mg/kg
quantityKind: AUC(0-t) (ng·h/mL)
Your answer should be a plain number; it is taken to be in ng·h/mL.

Query: Which value of AUC(0-t) has been reported for `O=C(NCCc1ccc(F)cc1F)c1cn(Cc2ccc(F)cc2)cc(O)c1=O` in the records?
Reply: 238

---

Test: in vivo
Details: male, CD-1, mouse, po, 20 mg/kg
quantityKind: MRT last (h)
Your answer should be a plain number; it is taken to be in h.

Query: Which value of MRT last has been reported for `O=C(NCCc1ccc(F)cc1F)c1cn(Cc2ccc(F)cc2)cc(O)c1=O` in the records?
Reply: 11

---

Test: in vivo
Conditions: male, CD-1, mouse, iv, 2 mg/kg
quantityKind: half-life (h)
Your answer should be a plain number; it is taken to be in h.

Query: Which value of half-life has been reported for `O=C(NCCc1ccc(F)cc1F)c1cn(Cc2ccc(F)cc2)cc(O)c1=O` in the records?
Reply: 5

---

Assay: in vivo
Conditions: male, CD-1, mouse, po, 20 mg/kg
quantityKind: Cmax (ng/mL)
Your answer should be a plain number; it is taken to be in ng/mL.

Query: Which value of Cmax has been reported for O=C(NCCc1ccc(F)cc1F)c1cn(Cc2ccc(F)cc2)cc(O)c1=O [ZW-2038] in the records?
Reply: 38

---

Assay: in vivo
Conditions: male, CD-1, mouse, po, 20 mg/kg
quantityKind: Tmax (min)
Your answer should be a plain number; it is taken to be in min.

Query: Which value of Tmax has been reported for `O=C(NCCc1ccc(F)cc1F)c1cn(Cc2ccc(F)cc2)cc(O)c1=O` in the records?
Reply: 12

---

Test: in vivo
Conditions: male, CD-1, mouse, Bioavailability (F, %)
quantityKind: bioavailability (%)
Your answer should be a plain number; it is taken to be in %.

Query: Which value of bioavailability has been reported for `O=C(NCCc1ccc(F)cc1F)c1cn(Cc2ccc(F)cc2)cc(O)c1=O` in the records?
Reply: 4

---

Test: in vivo
Conditions: male, CD-1, mouse, po, 20 mg/kg
quantityKind: half-life (days)
Your answer should be a plain number; it is taken to be in days.

Query: Which value of half-life has been reported for `O=C(NCCc1ccc(F)cc1F)c1cn(Cc2ccc(F)cc2)cc(O)c1=O` in the records?
Reply: 4.33

---

Assay: in vivo
Settings: male, CD-1, mouse, po, 20 mg/kg
quantityKind: AUC(0-t)
Note: a bare number is incomplete; add the unit.

Query: Which value of AUC(0-t) has been reported for `O=C(NCCc1ccc(F)cc1F)c1cn(Cc2ccc(F)cc2)cc(O)c1=O` in the records?
Reply: 98 ng·h/mL
